composite z-score for assorted compounds
- testedTarget: Neurogenic locus notch homolog protein 3 (Homo sapiens)
- testSummary: NOTCH3 binders on small-molecule microarray, primary screen, biochemical, 635/667 nm fluorescence (AID 1096)
- statedConditions: NOTCH3 binding, 635 nm fluorescence, higher = more signal
Answer as a number with no unit attached.

In: Quick one: composite z-score of Cc1cc(C)c(C(O)C2C=CC3C(=O)N(c4ccccc4)C(=O)C3N2Nc2ccc(C(C)C)cc2)c(C)c1 (stereo not drawn) ?
Out: 1.03

In: How about this compound: COc1cccc(/C=C/C=O)c1
Out: 0.181

In: And then CC(C)OC(=O)C=C1C[C@@H](c2ccc(C(F)(F)F)cc2)O[C@@H](c2ccc(C(F)(F)F)cc2)O1 , what is it?
Out: 0.324

In: Let us now turn to [N-]=[N+]=NCc1ccccc1C[C@@]1(C(=O)N2CCOCC2)N=C(c2ccc(OCCCO)cc2)O[C@@H]1c1ccccc1
Out: 0.553

In: Another compound to look at: COC(=O)c1nc2oc1CC[C@@H](CO)NC(=O)N(C)Cc1cnnn1C[C@H](Cc1ccccc1)NC2=O
Out: -0.139

In: Also check CCOC(=O)[C@H]1[C@@H]2C(=O)N3CCC[C@H]3[C@H](O[Si](C(C)C)(C(C)C)C(C)C)[C@H]2C=C2CCN(S(=O)(=O)c3ccc(C)cc3)C[C@H]21
Out: 1.09

In: Ok, now COC(=O)[C@@]1(Cc2ccccc2)[C@H]2c3cc(C(=O)N(C)C)n(Cc4c(CO)[nH]cc(C)c4=O)c3C[C@H]2CN1C(=O)c1ccccc1
Out: 0.447

In: Continue with C=C(C)c1cc2c(c(CCCCCC)n1)[Si](C(C)C)(C(C)C)OC2
Out: -0.64

---

- Tested on: wheat germ agglutinin (Triticum aestivum), Alexa647-labelled
- testSummary: wheat germ agglutinin binders on compound microarrays, profiling panel, artefact control for SMM control-protein annotation, biochemical, small-molecule microarray, 635/667 nm fluorescence (AID 1140);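 also: score merges 667 nm feature emission with signal to noise over triplicate slides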
- statedConditions: WGA-A647 binding, 635 nm fluorescence, higher = more signal
# cutoff 0.8 applies to composite z-score; >= gives 1, < gives -1

Observe how each entry below is paired with its result.
CCOc1cc(C(O)C2C=CC3C(=O)N(c4ccccc4)C(=O)C3N2Nc2ccc(C#N)cc2)ccc1O (stereo not drawn) | 1
O=C1NC(=O)C2C1C=CC(C(O)c1cccc3ccccc13)N2Nc1ccc(Cl)cc1Cl (stereo not drawn) | -1
CN1C(=O)C2C=CC(C(O)c3ccccn3)N(N(c3ccccc3)c3ccccc3)C2C1=O (stereo not drawn) | -1
CCOC(=O)C[C@H]1[C@H](OC(=O)c2cc3ccccc3oc2=O)[C@@H](NC(=O)Cc2ccc(OC)cc2)c2cc(OCCCO)ccc2N1C(=O)c1ccc2ccccc2n1 | -1
COC1OC[C@]2(C)[C@H]3C4=C(CN2C(=O)OC(C)(C)C)[C@H](C)C(CO)C(CO)C4CC[C@@H]13 (stereo partly drawn) | 1
COc1ccc(NC(=O)O[C@H]2[C@H](OC(=O)Nc3ccccc3)[C@@H](OC(=O)Nc3ccccc3)[C@@H](OC)O[C@@H]2CO)cc1 | -1

In: Hi team, for COc1cc(CO)cc(I)c1O[C@H]1C=C(C(=O)NCCO)C[C@@H](NCc2ccc(F)cc2)[C@@H]1O , is the recorded composite z-score at or above 0.8?
Out: -1
